target: Neuropeptide S receptor (Mus musculus); assay: Agonist activity at mouse recombinant NPSR expressed in HEK293 cells assessed as calcium mobilization relative to baseline; type: functional, cell-based
Square brackets hold non-standard residues; d marks the D form. Peptide text beside a SMILES is read from it. Aib = CC(C)(N)C(=O)O
Readings of Emax for the listed compounds
Note: unit % is implicit; provide only the numeric part.

Example cases with answers are listed next.
compound=CSCC[C@H](NC(=O)CNC(=O)[C@@H](NC(=O)[C@@H](C)NC(=O)[C@@H](NC(=O)CNC(=O)[C@H](CC(N)=O)NC(=O)[C@H](CCCNC(=N)N)NC(=O)[C@H](Cc1ccccc1)NC(=O)[C@@H](N)CO)C(C)C)[C@@H](C)O)C(=O)N[C@@H](CCCCN)C(=O)N[C@@H](CCCCN)C(=O)N[C@H](C(=O)N[C@@H](CO)C(=O)N[C@@H](Cc1ccccc1)C(=O)N[C@@H](CCC(N)=O)C(=O)N[C@@H](CCCNC(=N)N)C(=O)N[C@@H](C)C(=O)N[C@@H](CCCCN)C(=O)N[C@@H](CO)C(=O)O)[C@@H](C)O resultnumber=164
compound="CSCC[C@H](NC(=O)[C@H](C)NC(=O)[C@@H](NC(=O)CNC(=O)[C@@H](NC(=O)CNC(=O)[C@H](CC(N)=O)NC(=O)[C@H](CCCNC(=N)N)NC(=O)[C@H](Cc1ccccc1)NC(=O)[C@@H](N)CO)C(C)C)[C@@H](C)O)C(=O)N[C@@H](CCCCN)C(=O)N[C@@H](CCCCN)C(=O)N[C@@H](C)C(=O)N[C@@H](CO)C(=O)N[C@@H](Cc1ccccc1)C(=O)N[C@@H](CCC(N)=O)C(=O)N[C@@H](CCCNC(=N)N)C(=O)N[C@@H](C)C(=O)N[C@@H](CCCCN)C(=O)N[C@@H](CO)C(=O)O (H-SFRNGVGTAMKKASFQRAKS-OH)" resultnumber=191
compound="CSCC[C@H](NC(=O)CNC(=O)[C@@H](NC(=O)CNC(=O)[C@@H](NC(=O)[C@@H](C)NC(=O)[C@H](CC(N)=O)NC(=O)[C@H](CCCNC(=N)N)NC(=O)[C@H](Cc1ccccc1)NC(=O)[C@@H](N)CO)C(C)C)[C@@H](C)O)C(=O)N[C@@H](CCCCN)C(=O)N[C@@H](CCCCN)C(=O)N[C@H](C(=O)N[C@@H](CO)C(=O)N[C@@H](Cc1ccccc1)C(=O)N[C@@H](CCC(N)=O)C(=O)N[C@@H](CCCNC(=N)N)C(=O)N[C@@H](C)C(=O)N[C@@H](CCCCN)C(=O)N[C@@H](CO)C(=O)O)[C@@H](C)O (H-SFRN[dA]VGTGMKKTSFQRAKS-OH)" resultnumber=90

// below: Emax requested for another compound
QUERY: Can you look up the measured Emax of CSCC[C@H](NC(=O)CNC(=O)[C@@H](NC(=O)CNC(=O)[C@@H](NC(=O)C(C)(C)NC(=O)[C@H](CC(N)=O)NC(=O)[C@H](CCCNC(=N)N)NC(=O)[C@H](Cc1ccccc1)NC(=O)[C@@H](N)CO)C(C)C)[C@@H](C)O)C(=O)N[C@@H](CCCCN)C(=O)N[C@@H](CCCCN)C(=O)N[C@H](C(=O)N[C@@H](CO)C(=O)N[C@@H](Cc1ccccc1)C(=O)N[C@@H](CCC(N)=O)C(=O)N[C@@H](CCCNC(=N)N)C(=O)N[C@@H](C)C(=O)N[C@@H](CCCCN)C(=O)N[C@@H](CO)C(=O)O)[C@@H](C)O (H-SFRN[Aib]VGTGMKKTSFQRAKS-OH) for me?
RESULT: 65
